Test system: 786-0
Assay: NCI tumour cell line growth inhibition, 48 h
Active and inactive are the calls of the source. Rule as the data show it: active = GI50 up to about 1.1 µM and inactive = higher.
property.label: GI50

[[record]]
compound = "O=c1oc(=O)c2oc3ccccc3oc1=2"
assay_value = "> 100 µM (inactive)"

[[record]]
compound = "O=C1C=CC(=O)c2c1ccc1c3ccccc3n(CCCCCCCCCCCCn3c4ccccc4c4ccc5c(c43)C(=O)C=CC5=O)c21"
assay_value = "> 65.8 µM (inactive)"

[[record]]
compound = "CN(C)CCNC(=O)c1cccc2c1Oc1c(cccc1[N+](=O)[O-])O2"
assay_value = "0.564 µM (active)"

[[record]]
compound = "Cc1cc(O)c(C=O)c2c1C(=O)Oc1c(CO)c(O)c3c(c1O2)C(O)OC3=O (configuration not stated)"
assay_value = "> 100 µM (inactive)"

[[record]]
compound = "CCN(CC)CCNc1ccc2ncn3c4cc(OC)c(OC)c(O)c4c(=O)c1c23"
assay_value = "4.01 µM (inactive)"

[[record]]
compound = "O=c1c2sc3nc(NCCN4CCCCC4)ncc3c2ncn1-c1ccccc1"
assay_value = "80.7 µM (inactive)"

[[record]]
compound = "CC(=O)OCCc1cc2ccccc2oc1=O"
assay_value = "> 100 µM (inactive)"

[[record]]
compound = "CN1CCC2(CC1)SSC1(CCN(C)CC1)S2"
assay_value = "> 100 µM (inactive)"

[[record]]
compound = "CC(C)(C)OC(=O)N(CCCCN(CCCNC(=O)C(F)(F)F)C(=O)OC(C)(C)C)CCCNC(=O)C(F)(F)F"
assay_value = "> 100 µM (inactive)"

[[record]]
compound = "CCNC(=O)c1ccc(C)c(/N=N/N(C)C)c1"
assay_value = "> 100 µM (inactive)"

[[record]]
compound = "C1C2CC3CC1CC(c1nn4c(C56CC7CC(CC(C7)C5)C6)nnc4s1)(C2)C3"
assay_value = "> 100 µM (inactive)"

[[record]]
compound = "Cc1ccc(S(=O)(=O)N2CCNCCN(S(=O)(=O)c3ccc(C)cc3)CCNCC2)cc1"
assay_value = "18.7 µM (inactive)"

[[record]]
compound = "COC(=O)C(=O)C(C(=O)C=C(C)C)C(=O)C(=O)Nc1nc2ccc([N+](=O)[O-])cc2s1 (configuration not stated)"
assay_value = "> 100 µM (inactive)"

[[record]]
compound = "OCc1ccc2c(c1)CC1(C2)Cc2cc3c(cc2C1)CCC3"
assay_value = "5.51 µM (inactive)"

[[record]]
compound = "COc1cccc2c1CCc1sc(CN3CCN(C)CC3)nc1-2"
assay_value = "78.5 µM (inactive)"

[[record]]
compound = "C#CCn1c(=O)ccn(/C(=C\\C(=O)OCC)C(=O)OCC)c1=O"
assay_value = "2.3 µM (inactive)"

[[record]]
compound = "Cc1cc(O)c(C(C)C)cc1/N=C/c1ccccc1O"
assay_value = "5.73 µM (inactive)"

[[record]]
compound = "COc1ccc2c3c([nH]c2c1[N+](=O)[O-])C(C)N(C(=O)/C=C/c1ccccc1)CC3 (configuration not stated)"
assay_value = "12.7 µM (inactive)"

[[record]]
compound = "c1ccc2c3nnc(c2c1)SCCSCCCSCCS3"
assay_value = "29.1 µM (inactive)"

[[record]]
compound = "O=[N+]([O-])c1cc(Cl)cnc1Br"
assay_value = "5.83 µM (inactive)"

[[record]]
compound = "CN(C)C(=N)/N=C(\\N)Nc1cccc(Cl)c1"
assay_value = "> 100 µM (inactive)"

[[record]]
compound = "CN(C)/C=N\\c1nncc2[nH]nnc12"
assay_value = "> 100 µM (inactive)"

[[record]]
compound = "COc1cc(/C=C/C(=O)c2ccc(NS(=O)(=O)c3cc([N+](=O)[O-])ccc3C)cc2)cc(OC)c1OC"
assay_value = "2.74 µM (inactive)"

[[record]]
compound = "CN/C=C(/c1ccc(OC)cc1)C(O)c1ccc(OC)c(OC)c1 (configuration not stated)"
assay_value = "> 100 µM (inactive)"

[[record]]
compound = "O=NN(CCCl)C(=O)NC1CCCCC1"
assay_value = "16.4 µM (inactive)"

[[record]]
compound = "COc1ccc(-c2nnc(CCCCCCCCc3nnc(-c4ccc(OC)cc4)n3N)n2N)cc1"
assay_value = "> 31.6 µM (inactive)"

[[record]]
compound = "N#Cc1c(N)nc2c3c1NC(=O)C(C(N)=O)C3c1ccccc1O2 (configuration not stated)"
assay_value = "37.9 µM (inactive)"

[[record]]
compound = "O=C(c1ccccc1)C(C(=O)c1ccccc1)C1(O)C(=O)c2ccccc2C1=O"
assay_value = "26.9 µM (inactive)"

[[record]]
compound = "N#Cc1c(N)c2c(c(-c3ccccc3)c1-c1ccccc1)C(=O)N(Nc1ccccc1)C2=O"
assay_value = "40.6 µM (inactive)"

[[record]]
compound = "O=C1/C(=C(\\Nc2ccccc2)c2ccccc2)C=NN1c1ccccc1"
assay_value = "> 100 µM (inactive)"

[[record]]
compound = "O=C(O)CNc1ncc2c(n1)-c1ccccc1OC2"
assay_value = "> 100 µM (inactive)"

[[record]]
compound = "NC1=C(NC(=O)Cc2ccccc2F)C(=O)c2ccccc2C1=O"
assay_value = "27.1 µM (inactive)"

[[record]]
compound = "CCCCc1ccc(Nc2nc(Cl)c3c(ncn3C3CC(Oc4ccc(C)cc4)C(COc4ccc(C)cc4)O3)n2)cc1 (configuration not stated)"
assay_value = "> 100 µM (inactive)"

[[record]]
compound = "Nc1nc(SCCc2ccccc2)c2nc[nH]c2n1"
assay_value = "78.2 µM (inactive)"

[[record]]
compound = "Cc1c2c3cc(O)ccc3nc-2n(C)c2ccccc12"
assay_value = "0.53 µM (active)"

[[record]]
compound = "c1cc(C2=NCCO2)c2ccsc2c1"
assay_value = "> 100 µM (inactive)"

[[record]]
compound = "Cc1cc2c(cc1-c1cc3c(cc1C)C(C(C)C)=C(O)C(=O)/C3=C\\Nc1c(C)n(C)n(-c3ccccc3)c1=O)/C(=C/Nc1c(C)n(C)n(-c3ccccc3)c1=O)C(=O)C(O)=C2C(C)C"
assay_value = "62.1 µM (inactive)"

[[record]]
compound = "CCOC(=O)CCC(C(=O)OCC)n1nnc2cc(Nc3c(C)[n+]([O-])c4cc(F)c(OCC)cc4[n+]3[O-])ccc21 (configuration not stated)"
assay_value = "34.5 µM (inactive)"

[[record]]
compound = "Cc1ccc(OCC2OC(n3cnc4c(Cl)nc(Cl)nc43)CC2Oc2ccc(C)cc2)cc1 (configuration not stated)"
assay_value = "14.5 µM (inactive)"

[[record]]
compound = "O=c1[nH]nc(-c2ccccc2)n1-n1cnnc1"
assay_value = "> 100 µM (inactive)"

[[record]]
compound = "O=C(O)C(O)(c1ccc(-c2ccccc2)cc1)c1ccc(-c2ccccc2)cc1"
assay_value = "24.5 µM (inactive)"

[[record]]
compound = "CN(C)c1ccc2c(c1)C(=O)N(OS(=O)(=O)c1ccc([N+](=O)[O-])cc1)C2=O"
assay_value = "19.3 µM (inactive)"

